Would you mind telling me the reported pIC50 of each entry?
biological target: Gonadotropin-releasing hormone receptor (Homo sapiens, UniProt P30968); assay: Antagonist activity at human GnRHR expressed in CHO cells after 30 mins by luciferase reporter gene assay
Sequence (P30968 whole entry): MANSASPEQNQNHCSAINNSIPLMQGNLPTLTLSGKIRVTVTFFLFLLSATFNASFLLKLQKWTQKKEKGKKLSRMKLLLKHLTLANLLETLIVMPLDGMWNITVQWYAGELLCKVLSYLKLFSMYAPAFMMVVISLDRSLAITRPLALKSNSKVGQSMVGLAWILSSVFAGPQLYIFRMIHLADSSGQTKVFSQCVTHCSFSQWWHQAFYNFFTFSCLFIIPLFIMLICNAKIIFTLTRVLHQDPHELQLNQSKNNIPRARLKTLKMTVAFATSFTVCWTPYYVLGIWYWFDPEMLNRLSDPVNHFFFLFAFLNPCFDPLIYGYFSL
Numbers only, as −log10 of the molar value.

CCNC(=O)Nc1ccc(-c2nc3n(Cc4c(F)cccc4F)cc(C(=O)OCC)c(=O)n3c2CN(CC(=O)NCc2cn(CCOCCOCCN=[N+]=[N-])nn2)Cc2ccccc2)cc1 ... 6.33
CCNC(=O)Nc1ccc(-c2nc3n(Cc4c(F)cccc4F)cc(C(=O)OCC)c(=O)n3c2CN(CC(=O)NCc2cn(CCOCCN=[N+]=[N-])nn2)Cc2ccccc2)cc1 ... 6.28
CCNC(=O)Nc1ccc(-c2nc3n(Cc4c(F)cccc4F)cc(C(=O)OCC)c(=O)n3c2CN(CC(=O)NCc2cn(CCOCCOCCn3cc(CNC(=O)CN(Cc4ccccc4)Cc4c(-c5ccc(NC(=O)NCC)cc5)nc5n(Cc6c(F)cccc6F)cc(C(=O)OCC)c(=O)n45)nn3)nn2)Cc2ccccc2)cc1 ... 6.08

Below: the item to evaluate.
Supply pIC50 value. Item: "CCOC(=O)c1cn(Cc2c(F)cccc2F)c2nc(-c3ccc(NC(=O)NCc4cn(CCOCCOCCOCCn5cc(CNC(=O)Nc6ccc(-c7nc8n(Cc9c(F)cccc9F)cc(C(=O)OCC)c(=O)n8c7CN(C)Cc7ccccc7)cc6)nn5)nn4)cc3)c(CN(C)Cc3ccccc3)n2c1=O"
6.45

###

molecular target: Gonadotropin-releasing hormone receptor (Homo sapiens); assay: Displacement of [125I]triptorelin from human GnRHR expressed in CHO cells at 1 uM; format: cell-based
metric.name: Activity (%)
One number for each entry, in %.

In the examples that follow, each entry is paired with its recorded Activity.
CCNC(=O)Nc1ccc(-c2nc3n(Cc4c(F)cccc4F)cc(C(=O)OCC)c(=O)n3c2CN(CC(=O)NCc2cn(CCOCCOCCOCCOCCn3cc(CNC(=O)CN(Cc4ccccc4)Cc4c(-c5ccc(NC(=O)NCC)cc5)nc5n(Cc6c(F)cccc6F)cc(C(=O)OCC)c(=O)n45)nn3)nn2)Cc2ccccc2)cc1 ... 89
CCOC(=O)c1cn(Cc2c(F)cccc2F)c2nc(-c3ccc(NC(=O)NCc4cn(CCOCCOCCOCCN=[N+]=[N-])nn4)cc3)c(CN(C)Cc3ccccc3)n2c1=O ... 84
CCOC(=O)c1cn(Cc2c(F)cccc2F)c2nc(-c3ccc(NC(=O)NCc4cn(CCN=[N+]=[N-])nn4)cc3)c(CN(C)Cc3ccccc3)n2c1=O ... 76
CCNC(=O)Nc1ccc(-c2nc3n(Cc4c(F)cccc4F)cc(C(=O)NCc4cn(CCn5cc(CNC(=O)c6cn(Cc7c(F)cccc7F)c7nc(-c8ccc(NC(=O)NCC)cc8)c(CN(C)Cc8ccccc8)n7c6=O)nn5)nn4)c(=O)n3c2CN(C)Cc2ccccc2)cc1 ... 26
CCNC(=O)Nc1ccc(-c2nc3n(Cc4c(F)cccc4F)cc(C(=O)NCc4cn(CCOCCN=[N+]=[N-])nn4)c(=O)n3c2CN(C)Cc2ccccc2)cc1 ... 68
CCNC(=O)Nc1ccc(-c2nc3n(Cc4c(F)cccc4F)cc(C(=O)OCC)c(=O)n3c2CN(CC(=O)NCc2cn(CCOCCN=[N+]=[N-])nn2)Cc2ccccc2)cc1 ... 66

Record Activity for all entries; do not skip any.
1. C#CCNC(=O)CN(Cc1ccccc1)Cc1c(-c2ccc(NC(=O)NCC)cc2)nc2n(Cc3c(F)cccc3F)cc(C(=O)OCC)c(=O)n12
2. CCNC(=O)Nc1ccc(-c2nc3n(Cc4c(F)cccc4F)cc(C(=O)NCc4cn(CCOCCOCCOCCOCCN=[N+]=[N-])nn4)c(=O)n3c2CN(C)Cc2ccccc2)cc1
3. CCNC(=O)Nc1ccc(-c2nc3n(Cc4c(F)cccc4F)cc(C(=O)OCC)c(=O)n3c2CN(CC(=O)NCc2cn(CCn3cc(CNC(=O)CN(Cc4ccccc4)Cc4c(-c5ccc(NC(=O)NCC)cc5)nc5n(Cc6c(F)cccc6F)cc(C(=O)OCC)c(=O)n45)nn3)nn2)Cc2ccccc2)cc1

1. 98
2. 70
3. 65

GET Activity | system: Gonadotropin-releasing hormone receptor (Homo sapiens) | item: "CCOC(=O)c1cn(Cc2c(F)cccc2F)c2nc(-c3ccc(NC(=O)NCc4cn(CCOCCN=[N+]=[N-])nn4)cc3)c(CN(C)Cc3ccccc3)n2c1=O"
85
